# systemTested: human BMPR1B overexpressed on the surface of HEK293T cells (N-terminal Asp-Lys epitope tag, … (human, UniProt O00238 14-502))
# Sequence (O00238 14-502): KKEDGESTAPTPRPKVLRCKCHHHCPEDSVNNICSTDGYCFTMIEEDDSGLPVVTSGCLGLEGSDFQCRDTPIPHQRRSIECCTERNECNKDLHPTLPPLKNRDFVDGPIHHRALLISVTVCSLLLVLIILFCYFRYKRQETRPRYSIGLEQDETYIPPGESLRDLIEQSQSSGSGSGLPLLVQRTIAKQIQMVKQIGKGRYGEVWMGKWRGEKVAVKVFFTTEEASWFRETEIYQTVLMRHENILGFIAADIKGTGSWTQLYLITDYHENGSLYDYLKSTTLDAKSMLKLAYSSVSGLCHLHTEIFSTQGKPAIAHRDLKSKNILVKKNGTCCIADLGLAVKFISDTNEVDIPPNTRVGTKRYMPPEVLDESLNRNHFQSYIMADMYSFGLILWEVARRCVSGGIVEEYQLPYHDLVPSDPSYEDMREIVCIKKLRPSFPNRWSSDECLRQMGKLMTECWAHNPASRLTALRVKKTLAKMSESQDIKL
# testDescription: cell-based or functional assay
measuredEndpoint: % live, Fab-saporin, 100pM (%)
Field format: number, assumed %, no unit text.

SC91.11 (antibody, V domains shown) VH: QVQLQQPGAELVKPGASVKLSCKASGYTFTTYWMHWVKQRPGRGLEWIGRIDPNSGGTKYNEKFKSKATLTVDKPSSTACMQLSSLTSEDSAVYYCASRRGDIDVWGTGTTVTVSS VL: DIVMTQSQKFMSTSVGDRVSVTCKASQNVGTNVFWYQQKPGQSPKALIYAASYRYSGVPDRFTGSGSGTDFTLTISNVQSEDLADYFCQQYDSYPLTFGDGTKLELR ... 15.5

Okay, next one:
Query block: Give the reported value of % live, Fab-saporin, 100pM for this record: SC91.9 (murine anti-BMPR1B antibody) (antibody, V domains shown, Murine hybridoma antibody) VH: QVQLQQPGAELVKPGASVKLSCKASGYTFISYWMHWVKQRPGQGLEWIGMIHPNSGSTNYNESFKSKATLTVDKSSSTAYMQLSSLTSEDSAVYYCARDLLIATVVVTPYFAYWGQGTILTVSS VL: DIQMTQTTSSLSASLGDRVTISCRASQDISNFLNWYQQKPDGTIKFLIYYTSRLHSGVPSRFSGSGSGTDYSLTIRNLEQEDIATYFCQQGNTLPYTFGGGTKLEIK
Result block: 9.44
